Molecular target: UniProt:Q13443
Sequence (Q13443 29-819, species assumed): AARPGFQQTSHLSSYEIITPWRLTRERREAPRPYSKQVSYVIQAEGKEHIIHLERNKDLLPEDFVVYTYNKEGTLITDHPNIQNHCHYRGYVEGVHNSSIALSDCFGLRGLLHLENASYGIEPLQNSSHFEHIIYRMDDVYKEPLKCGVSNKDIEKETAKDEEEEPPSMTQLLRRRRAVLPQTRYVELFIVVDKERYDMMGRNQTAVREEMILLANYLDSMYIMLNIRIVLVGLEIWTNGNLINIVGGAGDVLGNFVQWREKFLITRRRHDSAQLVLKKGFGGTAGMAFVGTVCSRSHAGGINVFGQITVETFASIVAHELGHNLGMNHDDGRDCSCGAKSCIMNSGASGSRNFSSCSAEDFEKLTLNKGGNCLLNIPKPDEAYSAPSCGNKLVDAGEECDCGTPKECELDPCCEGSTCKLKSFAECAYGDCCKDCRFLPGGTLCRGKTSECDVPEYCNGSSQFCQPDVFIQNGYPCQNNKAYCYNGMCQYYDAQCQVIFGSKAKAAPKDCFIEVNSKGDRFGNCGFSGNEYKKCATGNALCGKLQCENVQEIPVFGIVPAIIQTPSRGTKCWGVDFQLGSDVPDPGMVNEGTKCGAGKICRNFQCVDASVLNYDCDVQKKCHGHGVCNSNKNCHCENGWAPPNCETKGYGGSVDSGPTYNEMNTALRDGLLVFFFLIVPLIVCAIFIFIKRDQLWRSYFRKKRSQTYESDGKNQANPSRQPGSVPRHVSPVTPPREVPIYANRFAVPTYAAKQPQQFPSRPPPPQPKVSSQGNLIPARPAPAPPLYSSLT
pIC50: −log10 of the molar value.
Quantity: pIC50

- Compound: "Cc1cc(COc2ccc(S(=O)(=O)NC[C@@H](C(=O)NO)N3CCCCC3)cc2)c2ccccc2n1 [Example 8]"
  Measured target: "UniProt:Q13443"
  Quantity: "pIC50"
  Result: "< 5.00"

---

Target: UniProt:P08254
Sequence (P08254 100-477, species assumed): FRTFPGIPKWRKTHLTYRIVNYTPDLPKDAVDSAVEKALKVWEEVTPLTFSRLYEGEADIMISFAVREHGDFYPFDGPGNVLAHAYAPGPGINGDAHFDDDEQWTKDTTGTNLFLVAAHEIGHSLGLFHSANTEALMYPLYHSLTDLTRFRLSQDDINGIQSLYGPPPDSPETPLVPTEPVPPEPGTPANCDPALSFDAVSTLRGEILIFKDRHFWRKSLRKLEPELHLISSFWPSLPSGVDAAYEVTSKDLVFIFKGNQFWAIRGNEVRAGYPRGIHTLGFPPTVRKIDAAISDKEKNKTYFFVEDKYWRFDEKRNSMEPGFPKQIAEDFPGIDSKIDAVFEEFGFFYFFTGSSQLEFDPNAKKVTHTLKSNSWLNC

- Smiles structure: "Cc1cc(COc2ccc(S(=O)(=O)NC[C@@H](C(=O)NO)N3CCCCC3)cc2)c2ccccc2n1"
  Unit: "µM"
  IC50: 4.5

---

Molecular target: MMP1 (Homo sapiens (Human))
Sequence (P03956 100-469, species assumed): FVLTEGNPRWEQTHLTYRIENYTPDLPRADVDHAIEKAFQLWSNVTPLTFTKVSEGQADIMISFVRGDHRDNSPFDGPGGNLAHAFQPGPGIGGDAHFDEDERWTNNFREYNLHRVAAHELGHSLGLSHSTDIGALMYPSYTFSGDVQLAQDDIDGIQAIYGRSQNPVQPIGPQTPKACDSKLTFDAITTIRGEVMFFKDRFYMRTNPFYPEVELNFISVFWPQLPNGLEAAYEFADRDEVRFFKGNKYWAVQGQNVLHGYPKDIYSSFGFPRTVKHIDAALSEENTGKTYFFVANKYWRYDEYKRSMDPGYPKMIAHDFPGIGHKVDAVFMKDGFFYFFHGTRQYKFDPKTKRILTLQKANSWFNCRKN
pIC50: −log10 of the molar value.

- Compound: "Cc1cc(COc2ccc(S(=O)(=O)NC[C@@H](C(=O)NO)N3CCCCC3)cc2)c2ccccc2n1 [Example 8]"
  pIC50: 5.52

---

Target: TACE enzyme (Homo sapiens)
Assay: Enzymatic assay for TACE inhibition
Format: biochemical
Conditions: fluorescent substrate 40 μM, pH 7.4
pIC50: −log10 of the molar value.
Recorded pIC50, one value per entry.

- Smiles structure: "O=C(NO)[C@H](CNS(=O)(=O)c1ccc(OCc2ccc3ccccc3c2)cc1)N1CCCCC1"
  Measured target: "TACE enzyme (Homo sapiens)"
  pIC50: 6.60
- Smiles structure: "O=C(NO)[C@H](CNS(=O)(=O)c1ccc(OCc2ccc(Cl)c(Cl)c2)cc1)N1CCCCC1"
  Measured target: "TACE enzyme (Homo sapiens)"
  pIC50: 6.48
- Smiles structure: "O=C(NO)[C@H](CNS(=O)(=O)c1ccc(OCc2ccccc2)cc1)N1CCCCC1"
  Measured target: "TACE enzyme (Homo sapiens)"
  pIC50: 6.74
- Smiles structure: "Cc1cc(COc2ccc(S(=O)(=O)NC[C@@H](C(=O)NO)N3CCOCC3)cc2)c2ccccc2n1"
  Measured target: "TACE enzyme (Homo sapiens)"
  pIC50: 7.42

---

Target: TACE enzyme (Homo sapiens, UniProt P78536)
Sequence (P78536 215-824 limits assumed): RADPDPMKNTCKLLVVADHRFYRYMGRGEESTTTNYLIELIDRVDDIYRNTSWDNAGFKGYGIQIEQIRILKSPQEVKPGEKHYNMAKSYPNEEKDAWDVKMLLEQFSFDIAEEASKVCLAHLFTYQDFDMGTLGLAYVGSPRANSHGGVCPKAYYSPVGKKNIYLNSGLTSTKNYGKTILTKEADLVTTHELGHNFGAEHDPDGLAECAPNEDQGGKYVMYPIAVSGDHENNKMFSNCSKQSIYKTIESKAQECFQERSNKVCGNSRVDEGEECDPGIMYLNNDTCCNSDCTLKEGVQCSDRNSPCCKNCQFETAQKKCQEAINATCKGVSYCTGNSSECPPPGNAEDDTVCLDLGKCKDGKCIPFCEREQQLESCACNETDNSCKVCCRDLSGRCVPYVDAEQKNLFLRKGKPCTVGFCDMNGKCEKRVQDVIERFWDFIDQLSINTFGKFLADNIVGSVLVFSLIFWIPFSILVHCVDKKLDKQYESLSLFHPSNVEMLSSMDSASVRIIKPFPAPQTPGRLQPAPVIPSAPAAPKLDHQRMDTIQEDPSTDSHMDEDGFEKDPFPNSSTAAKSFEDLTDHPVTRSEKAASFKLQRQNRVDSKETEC
Experiment: Enzymatic assay for TACE inhibition
Assay type: biochemical
Details: fluorescent substrate 40 μM, pH 7.4
pIC50: −log10 of the molar value.
Recorded pIC50, one value per entry.
Quantity: pIC50

- Smiles structure: "O=C(NO)[C@H](CNS(=O)(=O)c1ccc(OCc2ccccc2)cc1)N1CCCC1"
  Number: 6.53
- Smiles structure: "O=C(NO)[C@H](CNS(=O)(=O)c1ccc(OCc2ccc(F)cc2)cc1)N1CCCCC1"
  Number: 6.74
- Smiles structure: "O=C(NO)[C@H](CNS(=O)(=O)c1ccc(OCc2cc(Cl)cc(Cl)c2)cc1)N1CCCCC1"
  Number: 6.33
- Smiles structure: "O=C(NO)[C@H](CNS(=O)(=O)c1ccc(OCc2ccccc2)cc1)N1CCOCC1"
  Number: 6.83

---

Target: ADAM10 (Homo sapiens (Human))
Sequence (O14672 214-748, species assumed): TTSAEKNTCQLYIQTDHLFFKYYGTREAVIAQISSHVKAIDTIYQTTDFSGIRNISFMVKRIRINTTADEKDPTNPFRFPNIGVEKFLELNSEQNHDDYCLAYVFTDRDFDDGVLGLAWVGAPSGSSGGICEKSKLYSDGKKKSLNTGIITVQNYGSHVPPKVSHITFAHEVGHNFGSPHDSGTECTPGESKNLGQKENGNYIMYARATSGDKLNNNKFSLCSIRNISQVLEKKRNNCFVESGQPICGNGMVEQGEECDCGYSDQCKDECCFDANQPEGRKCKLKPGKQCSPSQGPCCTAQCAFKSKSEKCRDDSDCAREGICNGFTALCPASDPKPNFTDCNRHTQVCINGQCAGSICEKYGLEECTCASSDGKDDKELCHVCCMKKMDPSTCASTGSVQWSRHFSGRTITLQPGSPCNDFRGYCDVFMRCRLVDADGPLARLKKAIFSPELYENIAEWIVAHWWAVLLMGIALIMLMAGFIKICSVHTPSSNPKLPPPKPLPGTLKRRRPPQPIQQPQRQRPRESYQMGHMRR

- Molecule: "Cc1cc(COc2ccc(S(=O)(=O)NC[C@@H](C(=O)NO)N3CCCCC3)cc2)c2ccccc2n1 [Example 8]"
  IC50: "> 10 µM"
